System: MS2 coat protein
Experiment: apparent KD of MS2 coat protein; designed switch direction (-1 OFF switch, 1 ON switch): -1; higher = weaker reporter binding
Conditions: input ligand: none
Outcome label depends on apparent KD of MS2 coat protein relative to 30 nM: at/above gives class 1, below gives class 0.

>  <CHAIN>
GAAAACGCAGAGGAUAUUUCAGGUCAAAGCUGCAAAGAAGGCUGCACAUGAGGAUCACCCAUGUGGUCAAUAAA [Mod of Quesina 21 - Jieux - Exclusion 6] (Eterna round: R97, puzzle: Exclusion 6)

>  <SYSTEM TESTED>
MS2 coat protein

>  <ANSWER LABEL>
class 1

$$$$
>  <CHAIN>
UCUCUUGGGCAAGGAUAUCCUGCGCGGUUCCGGUUCGUGUCUGUCACAUGAGGAUCACCCAUGUGGGAGAAGGUGCCUGCGGUC [Design 77] (Eterna round: R96, puzzle: Exclusion NG 2)

>  <SYSTEM TESTED>
MS2 coat protein

>  <ANSWER LABEL>
class 0

$$$$
>  <CHAIN>
AUUGUUUAUGUAGGAUAUGCCUGGCGUGCCUUUGCAGAAGGACAUGAGGAUCACCCAUGUAACAUGAGGCUCACCCAUGUCGCC [salish99_ExNG1_r04_114] (Eterna round: R96, puzzle: Exclusion NG 1)

>  <SYSTEM TESTED>
MS2 coat protein

>  <ANSWER LABEL>
class 1

$$$$
>  <CHAIN>
UAAAAGUGAGGAUAUCCAAUAUAUGACAUGAGGAUCACCCAUGUUUCCACUCGUACCUCCGGAGAAGGCACAAAAU [Ex5 #60] (Eterna round: R97, puzzle: Exclusion 5)

>  <SYSTEM TESTED>
MS2 coat protein

>  <ANSWER LABEL>
class 0

$$$$

Lab note: next sequence to report on.
# input Please check the record GCGCAGCUGGUAGGAUAUUACAGACAGGACUCACGUAAGGGAGCCUGACAUGAGGAUCACCCAUGUAAGAAGGGCCGUGGUAUC [Eternabot solution 11] (Eterna round: R96, puzzle: Exclusion NG 2) and state if its apparent KD of MS2 coat protein is at or above 30 nM.
# output class 0
